assay: Quantitative High-Throughput drug screen in 47 multiple myeloma cell lines against the NCATS MIPE library collection: ARD_JJKsccE7 cell viability assay (AID 1918929; further: potency means the concentration at half of the fitted maximal effect); conditions: ARD myeloma cell line viability, CellTiter-Glo, 48 h; series mostly up to 45.8 µM
Results filed as inconclusive are left out. Activity calls are given as the source filed them. The call rests on the fitted dose curve; in most records, active means well fitted cell-killing curve with a large enough effect; inconclusive means small, poorly fitted or top-dose-only effect, or effect the other way; inactive means no such curve, though single readings can be large or run the other way.
Measured Attribute: Potency

Some compounds with recorded Potency:
Compound | Endpoint Result
CC(C)(C)c1[nH]cnc1C=c1[nH]c(=O)c(=Cc2ccccc2)[nH]c1=O | inactive
CN(C)c1ccccc1CN1CCCN(Cc2ccccc2N(C)C)C1c1ccncc1 | 18.7 µM (active)
C[C@@H]1C[C@H]2[C@@H]3CCC4=CC(=O)C=C[C@]4(C)[C@@]3(F)[C@@H](O)C[C@]2(C)[C@@]1(O)C(=O)CO | 0.0093 µM (active)
CC1(C)C(N(O)C(=O)Nc2ccc(Cl)cc2)N(c2ccc(Cl)cc2)C(=O)N1CC(=O)NN=CC=Cc1ccc([N+](=O)[O-])o1 (stereo not given) | inactive
CN1c2ccccc2C(=O)N2CCc3c([nH]c4ccccc34)C21 (stereo not given) | inactive

Item N#CC1(c2cccc(C(=O)Nc3cc(Oc4ccc5nc(NC(=O)C6CC6)sc5n4)ccc3F)c2Cl)CC1 has what recorded Potency?
0.59 µM (active)

Same question for Fc1ccc(CNc2ncnc3ccc(F)cc23)cc1 please.
4.69 µM (active)

Next up: NS(=O)(=O)c1ccc(Nc2nc(OCC3CCCCC3)c3[nH]cnc3n2)cc1
16.6 µM (active)

Now consider CC1=C(CC(=O)O)c2cc(F)ccc2C1=Cc1ccc(S(C)=O)cc1 (stereo not given) and answer again.
11.8 µM (active)

Follow-up entry: CCN1C[C@H](C)n2c(c(O)c3c(=O)n(Cc4ccc(F)c(Cl)c4)nc(C(=O)NC)c32)C1=O
inactive

And CCCCC[C@H](O)C=C[C@H]1[C@H](O)CC(=O)[C@H]1CCCCCCC(=O)O ?
inactive
